# System: TAK1
# Construct: gene MAP3K7
# test-context: concentration: 1 μM, replicates: in singlicate; n = 1;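 also: KINOMEscan kinase panel screen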
Please go through the items and note down their %Inh.
Give bare numbers, in %.

Solved entries (count: 5):
COc1ccc(C2=C(Nc3cccc(O)c3)C(=O)NC2=O)cc1 [SB-390766] ... 0
CS(=O)(=O)c1cccc(CNc2nc(Nc3ccc4c(c3)CCC(=O)N4)ncc2C(F)(F)F)c1 ... 68
COc1cc(Nc2nccc(N3CCC(NS(=O)(=O)c4ccc(NC(C)=O)cc4)CC3)n2)cc(OC)c1OC [GSK1379825] ... 0
CN(C)CCNS(=O)(=O)c1ccc(-c2ccnc3[nH]ccc23)cc1 [GSK977620] ... 1
CCNc1nccc(-c2c(-c3ccc(F)cc3)ncn2C2CCN(C)CC2)n1 ... 0

Hey, can you go through the list below and give me %Inh for every item?
1. CN(C)c1ncnc2nc[nH]c12 [SKF-31736]
2. COc1ccc(C)c(Nc2ccnc(Nc3ccc(-c4cnc[nH]4)cc3)n2)c1.Cl [GW784041]
3. Cc1cc(-c2c(-c3ccc(F)cc3)ncn2CCCN2CCOCC2)nc(N)n1 [SB-222517]
4. O=C(O)C(F)(F)F.O=c1[nH]ccc2nc(N[C@@H]3CCNC3)nc(Nc3ccc4c(c3)S(=O)(=O)CC4)c12 [GSK2181306]
5. COc1cc(Nc2ccnc3cc(-c4ccncc4)ccc23)cc(OC)c1OC.Cl [GW494610]

Reply text:
[0, 0, 3, 99.3, 0]

Hey, can you go through the list below and give me %Inh for every item?
1. Cc1ccc(-c2ccc3occ(-c4ccc(S(C)=O)cc4)c3c2)nn1 (centres unmarked)
2. Nc1ncc(-c2cn[nH]c2)c2scc(-c3ccc4c(c3)CCN4C(=O)Cc3ccccc3)c12 [GSK2593067]
3. Cc1ccc(O)cc1Nc1ccnc2cc(-c3ccc(CN4CCCCC4)o3)ccc12 [GW557777]
4. COc1cccc(CC(=O)N2CCc3cc(-c4cn(C)c5ncnc(N)c45)ccc32)c1 [GSK2608899]
5. CN(c1ccc(NC(=O)N2CCN(CCCN3CCOCC3)CC2)cc1)c1ccnc(Nc2ccc(CS(C)(=O)=O)cc2)n1.Cl [GW830899]

Reply text:
0
0
35
43
0

Hey, can you go through the list below and give me %Inh for every item?
1. CN(c1ccc2c(c1)nc(NCc1ccccc1)n2C)c1ccnc(Nc2ccc(CS(C)(=O)=O)cc2)n1.Cl [GW811603]
2. Cl.O=C(Nc1ccc(Oc2ccc3[nH]c(NC(=O)c4ccco4)nc3c2)cc1)Nc1cc(C(F)(F)F)ccc1F [GW683134]
3. Cc1ccc(Nc2ccnc(Nc3ccc(C)c(F)c3)n2)cc1O.Cl [GW582868]

Reply text:
1. 46
2. 89
3. 0

###

Please go through the items and note down their %Inh.
# Tested on: ACVR1
# test-context: concentration: 1 μM, replicates: in singlicate; n = 1
Answers are plain numbers, in %.

Solved entries (count: 2):
COc1ccc(NC(=O)c2ccoc2)cc1-c1ccc(C(=O)NCC2CC2)cc1 ... 0
Cc1ccc(Nc2ccnc(Nc3ccc(C)c(F)c3)n2)cc1O.Cl ... 88

// next entry
Inquiry: Jot down %Inh (ACVR1) of `CN(c1ccc(NC(=O)N2CCN(CCCN3CCOCC3)CC2)cc1)c1ccnc(Nc2ccc(CS(C)(=O)=O)cc2)n1.Cl` .
Reply text: 0

Reference source for all entries: paper PMC5540273
